All figures here come from ChEMBL document CHEMBL4477185.

# Ki per entry
- TARGET: Induced myeloid leukemia cell differentiation protein Mcl-1/BH3-interacting domain death agonist (Homo sapiens)
- Sequence (Q07820 whole entry, the tested form may be a part): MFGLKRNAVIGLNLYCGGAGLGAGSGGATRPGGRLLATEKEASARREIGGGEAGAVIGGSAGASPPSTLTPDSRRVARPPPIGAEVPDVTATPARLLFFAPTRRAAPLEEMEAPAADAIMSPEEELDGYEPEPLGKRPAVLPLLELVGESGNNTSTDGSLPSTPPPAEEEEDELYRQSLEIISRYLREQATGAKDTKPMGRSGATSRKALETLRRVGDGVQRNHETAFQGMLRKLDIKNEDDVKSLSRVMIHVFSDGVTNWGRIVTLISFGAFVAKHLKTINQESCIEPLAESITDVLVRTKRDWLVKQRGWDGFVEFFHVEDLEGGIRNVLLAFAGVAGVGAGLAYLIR
- Sequence (P55957 whole entry, further chain, the tested form may be a part): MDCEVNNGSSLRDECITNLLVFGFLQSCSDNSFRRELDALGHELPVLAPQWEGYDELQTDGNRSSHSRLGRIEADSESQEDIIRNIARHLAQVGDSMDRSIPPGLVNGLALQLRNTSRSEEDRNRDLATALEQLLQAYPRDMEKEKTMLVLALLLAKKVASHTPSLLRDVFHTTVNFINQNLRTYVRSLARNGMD
- MEASUREMENT PROTOCOL: Inhibition of His-tagged Mcl-1/5-carboxyfluorescein-Bid (unknown origin) after 1 hr by fluorescence polarization assay
PARAMETER MEASURED: Ki (nM)

SMI	BOUND OPERATOR	VALUE MEASURED
CCCC/C=C\CCCCCCCc1cccc(O)c1	>	33000
CCCCCCCCCCCCCc1cccc(O)c1	>	33000
CCCCCCCCCCCCCc1cccc(O)c1C(=O)O	=	200
CCCC/C=C\CCCCCCCc1cccc(O)c1C(=O)O	=	200
